Could you please report measured inhibition at 1 µM for the items listed next?
- Target Or System: panel of 255 wild-type kinases (Homo sapiens)
- Method Summary: Kinase panel profiling at 1 µmol/L (MSA or IMAP), percentage inhibition
- Type: biochemical
- Details: kinase GSK3α; 1 µmol/L single concentration; read-out: %-inhibition at 1 µmol/L, GSK3α
Give bare numbers, in %.

The following compounds have reported results that may help.
>  <Compound>
COc1ccc(CN2C3CC2CN(c2ccc(-c4cc(OCC(C)(C)O)cn5ncc(C#N)c45)cn2)C3)cn1 [selpercatinib]

>  <inhibition at 1 µM, %>
30

$$$$
>  <Compound>
CCN1C(=O)N(c2c(F)c(OC)cc(OC)c2F)Cc2cnc3[nH]c(CN4CCOCC4)cc3c21 [pemigatinib]

>  <inhibition at 1 µM, %>
-5.3

$$$$
>  <Compound>
COc1cc2ncnc(Nc3ccc(F)c(Cl)c3)c2cc1NC(=O)/C=C/CN1CCCCC1 [dacomitinib]

>  <inhibition at 1 µM, %>
1.45

$$$$
>  <Compound>
Cn1cc(-c2cc3c(N4CCN(c5ncc([C@@](C)(N)c6ccc(F)cc6)cn5)CC4)ncnn3c2)cn1 [avapritinib]

>  <inhibition at 1 µM, %>
3

$$$$
>  <Compound>
C[C@H](Nc1ncnc2nc[nH]c12)c1cc2cccc(Cl)c2c(=O)n1-c1ccccc1 [duvelisib]

>  <inhibition at 1 µM, %>
-1.9

$$$$
>  <Compound>
O=C(Nc1cnn2ccc(N3CCC[C@@H]3c3cc(F)ccc3F)nc12)N1CC[C@H](O)C1 [larotrectinib]

>  <inhibition at 1 µM, %>
-6.65

$$$$
>  <Compound>
Cn1cnc2c(F)c(Nc3ccc(Br)cc3F)c(C(=O)NOCCO)cc21 [binimetinib]

>  <inhibition at 1 µM, %>
-2.8

$$$$
>  <Compound>
CO[C@]1(C(=O)N[C@@H](C)c2ccc(-n3cc(F)cn3)nc2)CC[C@H](c2nc(C)cc(Nc3cc(C)[nH]n3)n2)CC1 [pralsetinib]

>  <inhibition at 1 µM, %>
62

$$$$
>  <Compound>
CCN1CCN(c2ccc(Nc3cc(N(C)C(=O)Nc4c(Cl)c(OC)cc(OC)c4Cl)ncn3)cc2)CC1 [infigratinib]

>  <inhibition at 1 µM, %>
-1.67

$$$$
>  <Compound>
CCn1c(=O)c(-c2cc(NC(=O)Nc3ccccc3)c(F)cc2Br)cc2cnc(NC)cc21 [ripretinib]

>  <inhibition at 1 µM, %>
-0.0405

$$$$

Query :: What inhibition at 1 µM value was documented for this compound, C[C@H]1Oc2cc(cnc2N)-c2c(nn(C)c2C#N)CN(C)C(=O)c2ccc(F)cc21 [lorlatinib] ?
Result :: -2.36

###

- Target Or System: UniProt Q9UKE5
- Sequence (Q9UKE5 whole entry): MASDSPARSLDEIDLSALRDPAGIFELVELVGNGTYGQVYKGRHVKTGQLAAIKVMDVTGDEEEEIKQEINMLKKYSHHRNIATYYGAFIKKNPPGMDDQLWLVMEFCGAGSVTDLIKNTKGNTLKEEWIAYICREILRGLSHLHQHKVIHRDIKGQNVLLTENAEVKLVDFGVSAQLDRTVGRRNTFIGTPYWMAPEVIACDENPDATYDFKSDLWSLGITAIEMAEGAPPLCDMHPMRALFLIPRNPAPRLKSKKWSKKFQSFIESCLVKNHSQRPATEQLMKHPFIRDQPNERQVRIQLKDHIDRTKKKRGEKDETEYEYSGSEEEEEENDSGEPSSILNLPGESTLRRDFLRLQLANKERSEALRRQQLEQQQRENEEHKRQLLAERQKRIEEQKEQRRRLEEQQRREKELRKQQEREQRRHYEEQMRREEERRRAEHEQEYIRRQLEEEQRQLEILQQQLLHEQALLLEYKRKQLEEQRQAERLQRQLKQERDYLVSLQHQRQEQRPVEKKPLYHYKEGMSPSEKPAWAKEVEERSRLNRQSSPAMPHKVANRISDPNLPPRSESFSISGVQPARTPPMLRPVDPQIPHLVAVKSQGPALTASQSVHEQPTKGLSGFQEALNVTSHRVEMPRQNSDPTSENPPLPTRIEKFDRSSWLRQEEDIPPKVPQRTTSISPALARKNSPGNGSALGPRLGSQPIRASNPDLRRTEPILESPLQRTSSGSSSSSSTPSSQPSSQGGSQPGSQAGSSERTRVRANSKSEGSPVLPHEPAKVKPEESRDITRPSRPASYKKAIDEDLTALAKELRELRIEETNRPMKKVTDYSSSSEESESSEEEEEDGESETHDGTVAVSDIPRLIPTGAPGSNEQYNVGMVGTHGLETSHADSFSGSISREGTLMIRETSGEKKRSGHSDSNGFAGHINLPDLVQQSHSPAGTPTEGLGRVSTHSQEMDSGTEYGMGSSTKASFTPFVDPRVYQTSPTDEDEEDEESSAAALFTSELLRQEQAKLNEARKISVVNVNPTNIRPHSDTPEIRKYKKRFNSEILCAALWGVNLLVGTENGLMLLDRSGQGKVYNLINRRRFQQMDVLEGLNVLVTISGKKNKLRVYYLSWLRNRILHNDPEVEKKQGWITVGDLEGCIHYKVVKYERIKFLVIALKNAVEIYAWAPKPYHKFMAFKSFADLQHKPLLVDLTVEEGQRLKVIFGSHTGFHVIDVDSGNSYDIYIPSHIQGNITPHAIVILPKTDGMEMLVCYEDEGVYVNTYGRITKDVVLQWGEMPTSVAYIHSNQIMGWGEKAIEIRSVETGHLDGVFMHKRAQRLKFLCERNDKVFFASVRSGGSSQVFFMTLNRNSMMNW
- Method Summary: Kinase panel profiling at 1 µmol/L (MSA or IMAP), percentage inhibition
- Assay type: biochemical
- Details: kinase TNIK; 1 µmol/L single concentration; read-out: %-inhibition at 1 µmol/L, TNIK
Rule: inhibition at 1 µM under 6% gives 0.0, otherwise 1.0.

Use the examples below as a reference point.
>  <Compound String>
Cn1cnc2c(F)c(Nc3ccc(Br)cc3Cl)c(C(=O)NOCCO)cc21

>  <Label Value>
0.0

$$$$
>  <Compound String>
C=CC(=O)N1CCC([C@@H]2CCNc3c(C(N)=O)c(-c4ccc(Oc5ccccc5)cc4)nn32)CC1

>  <Label Value>
1.0

$$$$
>  <Compound String>
Cc1nc(NC(=O)N2CCC[C@H]2C(N)=O)sc1-c1ccnc(C(C)(C)C(F)(F)F)c1

>  <Label Value>
0.0

$$$$
>  <Compound String>
C[C@H]1Oc2cc(cnc2N)-c2c(nn(C)c2C#N)CN(C)C(=O)c2ccc(F)cc21

>  <Label Value>
1.0

$$$$

Query :: Does the reported inhibition at 1 µM for C[C@H](Nc1ncnc2nc[nH]c12)c1cc2cccc(Cl)c2c(=O)n1-c1ccccc1 fall at or above the 6% mark?
Result :: 0.0

Query :: Does the reported inhibition at 1 µM for CCn1c(=O)c(-c2cc(NC(=O)Nc3ccccc3)c(F)cc2Br)cc2cnc(NC)cc21 fall at or above the 6% mark?
Result :: 1.0

Query :: Does the reported inhibition at 1 µM for FC(F)(F)c1ccc(CNc2ccc(Cc3c[nH]c4ncc(Cl)cc34)cn2)cn1 fall at or above the 6% mark?
Result :: 1.0

###

Could you please report measured inhibition at 1 µM for the items listed next?
- Target Or System: panel of 255 wild-type kinases (Homo sapiens)
- Method Summary: Kinase panel profiling at 1 µmol/L (MSA or IMAP), percentage inhibition
- Assay type: biochemical
- Details: kinase JNK1; 1 µmol/L single concentration; read-out: %-inhibition at 1 µmol/L, JNK1
Numbers only, in %.

>  <Compound String>
CN1CCN(c2ccc(C(=O)Nc3n[nH]c4ccc(Cc5cc(F)cc(F)c5)cc34)c(NC3CCOCC3)c2)CC1

>  <inhibition at 1 µM, %>
-0.262

$$$$
>  <Compound String>
C[C@H](Nc1ncnc2nc[nH]c12)c1cc2cccc(Cl)c2c(=O)n1-c1ccccc1

>  <inhibition at 1 µM, %>
0.533

$$$$

Continue with the next compound.
Query :: What inhibition at 1 µM value was documented for this compound, CCN1C(=O)N(c2c(F)c(OC)cc(OC)c2F)Cc2cnc3[nH]c(CN4CCOCC4)cc3c21 ?
Result :: -4.3

###

- Target Or System: UniProt Q8N4C8
- Sequence (Q8N4C8 whole entry): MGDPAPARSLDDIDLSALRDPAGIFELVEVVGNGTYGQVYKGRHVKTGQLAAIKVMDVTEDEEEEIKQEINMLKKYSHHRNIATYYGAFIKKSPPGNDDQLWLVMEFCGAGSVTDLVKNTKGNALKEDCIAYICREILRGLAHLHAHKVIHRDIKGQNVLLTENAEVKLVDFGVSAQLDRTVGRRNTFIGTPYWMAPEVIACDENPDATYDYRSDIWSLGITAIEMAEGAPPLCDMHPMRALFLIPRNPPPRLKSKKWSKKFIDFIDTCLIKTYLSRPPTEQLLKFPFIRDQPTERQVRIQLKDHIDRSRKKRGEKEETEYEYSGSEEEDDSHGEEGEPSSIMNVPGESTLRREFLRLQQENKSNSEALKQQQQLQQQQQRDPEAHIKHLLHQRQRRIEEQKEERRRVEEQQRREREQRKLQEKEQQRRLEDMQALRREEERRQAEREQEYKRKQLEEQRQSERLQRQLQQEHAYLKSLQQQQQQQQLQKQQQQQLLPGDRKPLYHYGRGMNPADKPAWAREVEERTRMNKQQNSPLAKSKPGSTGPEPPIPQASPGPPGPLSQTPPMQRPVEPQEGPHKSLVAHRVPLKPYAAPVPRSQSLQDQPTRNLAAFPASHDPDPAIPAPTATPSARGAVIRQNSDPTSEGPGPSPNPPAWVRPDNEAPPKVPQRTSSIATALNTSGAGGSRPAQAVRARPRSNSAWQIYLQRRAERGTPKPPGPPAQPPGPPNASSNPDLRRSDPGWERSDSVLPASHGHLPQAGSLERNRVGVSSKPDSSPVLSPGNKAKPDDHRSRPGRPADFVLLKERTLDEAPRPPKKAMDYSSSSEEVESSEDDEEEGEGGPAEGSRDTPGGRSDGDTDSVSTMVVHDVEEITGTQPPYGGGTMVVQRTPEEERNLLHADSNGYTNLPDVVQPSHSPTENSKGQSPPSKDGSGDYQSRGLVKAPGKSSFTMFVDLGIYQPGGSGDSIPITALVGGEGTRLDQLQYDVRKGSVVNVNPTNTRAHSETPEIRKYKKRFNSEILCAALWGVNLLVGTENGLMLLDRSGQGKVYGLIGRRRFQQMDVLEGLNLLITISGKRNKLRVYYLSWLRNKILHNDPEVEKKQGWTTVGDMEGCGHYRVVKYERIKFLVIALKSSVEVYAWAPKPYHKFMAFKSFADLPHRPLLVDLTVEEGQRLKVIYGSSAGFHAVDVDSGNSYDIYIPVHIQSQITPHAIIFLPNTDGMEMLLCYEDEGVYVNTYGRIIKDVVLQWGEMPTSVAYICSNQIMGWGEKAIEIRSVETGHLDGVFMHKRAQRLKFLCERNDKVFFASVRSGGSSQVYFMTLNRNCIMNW
- Method Summary: Kinase panel profiling at 1 µmol/L (MSA or IMAP), percentage inhibition
- Format: biochemical
- Details: MINK; 1 µmol/L single concentration; read-out: %-inhibition, MINK
Could you please report measured inhibition at 1 µM for the items listed next?
Answers are plain numbers, in %.

>  <Compound String>
CN1CCN(c2ccc(C(=O)Nc3n[nH]c4ccc(Cc5cc(F)cc(F)c5)cc34)c(NC3CCOCC3)c2)CC1

>  <Target Or System>
UniProt Q8N4C8

>  <inhibition at 1 µM (%)>
1.64

$$$$
>  <Compound String>
CCN1CCN(c2ccc(Nc3cc(N(C)C(=O)Nc4c(Cl)c(OC)cc(OC)c4Cl)ncn3)cc2)CC1

>  <Target Or System>
UniProt Q8N4C8

>  <inhibition at 1 µM (%)>
-2.82

$$$$
>  <Compound String>
C=CC(=O)N1CCC([C@@H]2CCNc3c(C(N)=O)c(-c4ccc(Oc5ccccc5)cc4)nn32)CC1

>  <Target Or System>
UniProt Q8N4C8

>  <inhibition at 1 µM (%)>
-1.27

$$$$
>  <Compound String>
CCn1c(=O)c(-c2cc(NC(=O)Nc3ccccc3)c(F)cc2Br)cc2cnc(NC)cc21

>  <Target Or System>
UniProt Q8N4C8

>  <inhibition at 1 µM (%)>
3.55

$$$$
>  <Compound String>
C[C@H](Nc1ncnc2nc[nH]c12)c1cc2cccc(Cl)c2c(=O)n1-c1ccccc1

>  <Target Or System>
UniProt Q8N4C8

>  <inhibition at 1 µM (%)>
0.317

$$$$
>  <Compound String>
O=C(Nc1cnn2ccc(N3CCC[C@@H]3c3cc(F)ccc3F)nc12)N1CC[C@H](O)C1

>  <Target Or System>
UniProt Q8N4C8

>  <inhibition at 1 µM (%)>
-2.24

$$$$

Query :: What inhibition at 1 µM value was documented for this molecule, CCN1C(=O)N(c2c(F)c(OC)cc(OC)c2F)Cc2cnc3[nH]c(CN4CCOCC4)cc3c21 ?
Result :: -4.31

###

- System: 134 cancer cell lines
- Method Summary: Cell viability assay (ATPlite, 72 hours), IC50 on cancer cell line panel
- Details: read-out: IC50 in cell proliferation assay, cell line RL
Could you please report measured pIC50 for the items listed next?
Numbers only, as −log10 of the molar value.

The following compounds have reported results that may help.
>  <Compound>
COc1ccc(CN2C3CC2CN(c2ccc(-c4cc(OCC(C)(C)O)cn5ncc(C#N)c45)cn2)C3)cn1 [selpercatinib]

>  <pIC50>
5.69

$$$$
>  <Compound>
COc1cc2ncnc(Nc3ccc(F)c(Cl)c3)c2cc1NC(=O)/C=C/CN1CCCCC1 [dacomitinib]

>  <pIC50>
5.38

$$$$

Continue with the next compound.
Query :: Lookup: pIC50 / 134 cancer cell lines / COC(=O)N[C@@H](C)CNc1nccc(-c2cn(C(C)C)nc2-c2cc(Cl)cc(NS(C)(=O)=O)c2F)n1 [encorafenib]
Result :: 4.53

###

Could you please report measured IC50 for the items listed next?
- System: 134 cancer cell lines
- Method Summary: Cell viability assay (ATPlite, 72 hours), IC50 on cancer cell line panel
- Details: Homo sapiens, Hs746T, read-out: IC50 in cell proliferation assay, Hs 746.T cell line (MET exon14skip + amplification)

The following compounds have reported results that may help.
>  <Compound String>
O=C(Nc1cnn2ccc(N3CCC[C@@H]3c3cc(F)ccc3F)nc12)N1CC[C@H](O)C1

>  <Endpoint>
IC50

>  <Result>
> 31.6 µM

$$$$
>  <Compound String>
Cc1cc(Nc2ncc(Cl)c(Nc3ccccc3S(=O)(=O)C(C)C)n2)c(OC(C)C)cc1C1CCNCC1

>  <Endpoint>
IC50

>  <Result>
3.34 µM

$$$$
>  <Compound String>
FC(F)(F)c1ccc(CNc2ccc(Cc3c[nH]c4ncc(Cl)cc34)cn2)cn1

>  <Endpoint>
IC50

>  <Result>
> 31.6 µM

$$$$

Please supply IC50 for each of the following items, keeping them in order.
1. CO[C@]1(C(=O)N[C@@H](C)c2ccc(-n3cc(F)cn3)nc2)CC[C@H](c2nc(C)cc(Nc3cc(C)[nH]n3)n2)CC1
2. CC(=O)Nc1cccc(-n2c(=O)n(C3CC3)c(=O)c3c(Nc4ccc(I)cc4F)n(C)c(=O)c(C)c32)c1

Result ::
1: 9.64 µM; 2: 0.082 µM
